System: HCoV-229E
Parameters: species or system Huh-7; HTS, protection from HCoV-229E induced cell death, luminescent cell viability (CellCounting-Lite 2.0), inhibition rate
DETAILS: 24 h, 10 µM; inhibitor
I would appreciate it if you labelled entries Yes when 229E Inhibition rate is 20% or higher, otherwise No.

{"MOLECULE": "N[C@H](C(=O)O)c1cc(O)no1", "ASSIGNED_CLASS": "No"}
{"MOLECULE": "CN[C@H]1[C@H](O)[C@H](O[C@@H]2[C@@H](O)[C@H](O[C@H]3O[C@H](C(C)O)[C@@H](O)[C@H](O)[C@H]3N)[C@@H](N)C[C@H]2N)OC[C@@]1(C)O (stereo partly drawn) [G-418 (disulfate)]", "ASSIGNED_CLASS": "Yes"}
{"MOLECULE": "C[C@H]1CCC2N(C1)C[C@H]1C3CC4[C@@H](CC(=O)C5C[C@@H](O)CC[C@@]54C)C3CCC1[C@]2(C)O (stereo partly drawn)", "ASSIGNED_CLASS": "Yes"}
{"MOLECULE": "CC(=O)C1=C(O)[C@@H]2[C@H]3c4c[nH]c5cccc(c45)C[C@H]3C(C)(C)N2C1=O", "ASSIGNED_CLASS": "No"}
{"MOLECULE": "O=c1cc(-c2ccc(O)cc2)oc2c([C@@H]3O[C@H](CO)[C@@H](O)[C@H](O)[C@H]3O)c(O)cc(O)c12", "ASSIGNED_CLASS": "No"}
{"MOLECULE": "N#C[C@H](O[C@@H]1O[C@H](CO[C@@H]2O[C@H](CO)[C@@H](O)[C@H](O)[C@H]2O)[C@@H](O)[C@H](O)[C@H]1O)c1ccccc1", "ASSIGNED_CLASS": "Yes"}
{"MOLECULE": "CN1C(=O)[C@]23CC4=CC=C[C@H](O)[C@H]4N2C(=O)[C@@]1(CO)SS3", "ASSIGNED_CLASS": "No"}
{"MOLECULE": "CN1CCc2cc3c(cc2[C@H]1[C@@H]1OC(=O)c2c1ccc1c2OCO1)OCO3", "ASSIGNED_CLASS": "No"}

These entries and their values trace back to paper PMC12431657.
